Target: Wee1 kinase domain (Homo sapiens, UniProt P30291)
Construct: Wee1 kinase domain was purchased from Carna (catalog #05-177); purchased Carna 05-177
Sequence (P30291 299-569 limits assumed): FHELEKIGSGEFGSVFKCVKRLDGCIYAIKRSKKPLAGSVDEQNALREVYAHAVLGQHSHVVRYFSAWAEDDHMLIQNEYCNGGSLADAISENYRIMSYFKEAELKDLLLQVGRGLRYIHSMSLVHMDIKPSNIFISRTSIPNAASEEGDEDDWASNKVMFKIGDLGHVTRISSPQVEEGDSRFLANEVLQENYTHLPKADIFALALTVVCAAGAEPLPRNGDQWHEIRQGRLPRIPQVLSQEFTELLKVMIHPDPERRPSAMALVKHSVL
Assay: Wee1 Kinase Biochemical Assay (ADP-Glo)
Conditions: Wee1 kinase domain, 15 uM ATP, ADP-Glo
Description: Wee1 Kinase Biochemical Assay Protocol Wee1 kinase domain was purchased from Carna (catalog #05-177). Wee1 kinase activity was determined with Poly(Lys,Tyr 4:1) hydrobromide as a substrate (Sigma-Aldrich) and by measuring ADP production using the ADP-Glo Kinase Assay kit (Promega) following the manufacturer's instructions. […] The ADP-Glo signal was measured using the Envision plate reader and the percentage inhibition of kinase activity calculated for each inhibitor tested. […]
A collection of molecules and their measured IC50

Molecule: Cc1cc(Nc2ncc3c(n2)N(c2cccc(N4C(=O)OC[C@@H]4C)n2)[C@H]2CC(C)(C)OC[C@@]32C)ccc1[C@H]1CCNC1 (single isomer, unassigned)
IC50: 10 to 100 nM
//
Molecule: CNCc1cccc(N2c3nc(Nc4ccc(N5C[C@H]6C[C@@H]5CO6)cc4)ncc3[C@@]3(C)COC(C)(C)C[C@@H]23)n1 (single isomer, unassigned)
IC50: < 10 nM
//
Molecule: CC1(C)C[C@H]2N(c3cccc(N=S(C)(C)=O)n3)c3nc(Nc4ccn(C(F)F)c(=O)c4)ncc3[C@@]2(C)CO1 (single isomer, unassigned)
IC50: < 10 nM
//
Molecule: CNCc1cccc(N2c3nc(Nc4ccc(C5(C)COC5)cc4)ncc3[C@]3(C)COC(C)(C)C[C@H]23)n1 (single isomer, unassigned) [Example 83]
IC50: ≥ 1000 nM
//
Molecule: CN1CCC(n2ccc(Nc3ncc4c(n3)N(c3cccc(N=S(C)(C)=O)n3)[C@@H]3CC(C)(C)OC[C@]43C)cc2=O)CC1
IC50: < 10 nM

----------
This listing pairs compounds with measured pIC50.
System: phosphorylation of Cdc2 Y15 (Wee1 substrate) in A427 cells
Assay: Phosphorylated Cdc2 MSD Electrochemiluminescence Assay
Type: cell-based
Conditions: Homo sapiens, A-427, pCDC2 MSD
pIC50: −log10 of the molar value.
Quantity measured: pIC50

Compound: CN1CCC(n2ccc(Nc3ncc4c(n3)N(c3cccc(N=S(C)(C)=O)n3)[C@@H]3CC(C)(C)OC[C@]43C)cc2=O)CC1
Endpoint value: 6.00 to 7.00
//
Compound: C[C@H]1COC(=O)N1c1cccc(N2c3nc(Nc4ccn(C)c(=O)c4)ncc3[C@@]3(C)COC(C)(C)C[C@@H]23)n1 (single isomer, unassigned)
Endpoint value: 6.00 to 7.00
//
Compound: CNCc1cccc(N2c3nc(Nc4ccc([C@@H]5CCC(=O)N5C)cc4)ncc3[C@@]3(C)COC(C)(C)C[C@@H]23)n1 (single isomer, unassigned)
Endpoint value: > 7.00
//
Compound: CC1(C)C[C@H]2N(c3cccc(N=S(C)(C)=O)n3)c3nc(Nc4cnccn4)ncc3[C@@]2(C)CO1 (single isomer, unassigned)
Endpoint value: 5.00 to 6.00
//
Compound: C[C@H]1COC(=O)N1c1cccc(N2c3nc(Nc4ccc(N5C[C@H]6C[C@@H]5CN6C)cc4)ncc3[C@]3(C)COC(C)(C)C[C@H]23)n1 (single isomer, unassigned)
Endpoint value: 5.00 to 6.00

----------
Overview of recorded pIC50 for various molecules
Test system: phosphorylation of Cdc2 Y15 (Wee1 substrate) in A427 cells
Experiment: Phosphorylated Cdc2 MSD Electrochemiluminescence Assay
Format: cell-based
Settings: Homo sapiens, A-427, pCDC2 MSD
Method: Phosphorylated Cdc2 MSD Electrochemiluminescence Assay The effect of Wee1 inhibitors on cellular phosphorylation of the Wee1 substrate Cdc2 was determined using the following protocol: […] To detect phosphorylation of Cdc2 Y15, 30 μL of capture antibody solution (CST catalog #9116S 1:200) was added into each well of the MSD plate (MSD catalog #L15XB-6), sealed and incubated at 4° C. with shaking (450 rpm) overnight. […] The electrochemiluminescence signal was measured on a MESO SECTOR S600 plate reader. […]
pIC50: −log10 of the molar value.

Molecule: Cc1cc(Nc2ncc3c(n2)N(c2cccc(N4C(=O)OC[C@@H]4C)n2)[C@@H]2CC(C)(C)OC[C@]32C)ccc1O[C@@H]1CCN(C)C1 (single isomer, unassigned)
pIC50: 6.00 to 7.00

Molecule: Cc1cc(Nc2ncc3c(n2)N(c2cccc(N4C(=O)OC[C@@H]4C)n2)[C@@H]2CC(C)(C)OC[C@]32C)ccc1O[C@@H]1CCNC1 (single isomer, unassigned)
pIC50: 6.00 to 7.00

Molecule: C[C@H]1COC(=O)N1c1cccc(N2c3nc(Nc4ccc(C5CCN(C)CC5)nc4)ncc3[C@@]3(C)COC(C)(C)C[C@@H]23)n1 (single isomer, unassigned)
pIC50: 6.00 to 7.00

Molecule: CNCc1cccc(N2c3nc(Nc4ccc(N5CCOCC5)cc4)ncc3[C@@]3(C)COC(C)(C)C[C@@H]23)n1 (single isomer, unassigned)
pIC50: 6.00 to 7.00

Molecule: C[C@H]1COC(=O)N1c1cccc(N2c3nc(Nc4ccc(OC5CCNCC5)nc4)ncc3[C@@]3(C)COC(C)(C)C[C@@H]23)n1 (single isomer, unassigned)
pIC50: 6.00 to 7.00

Molecule: CNCc1cccc(N2c3nc(Nc4ccc([C@@H]5CCOC5)cc4)ncc3[C@@]3(C)COC(C)(C)C[C@@H]23)n1 (single isomer, unassigned)
pIC50: > 7.00

Molecule: Cn1ccc(Nc2ncc3c(n2)N(c2cccc(N=S(C)(C)=O)n2)[C@@H]2CC(C)(C)OC[C@]32C)cc1=O (single isomer, unassigned)
pIC50: 6.00 to 7.00

Molecule: C[C@H]1COC(=O)N1c1cccc(N2c3nc(Nc4ccc([C@@H]5CCN(C)C5)nc4)ncc3[C@]3(C)COC(C)(C)C[C@H]23)n1 (single isomer, unassigned)
pIC50: 6.00 to 7.00

Molecule: CN1CC[C@](C)(c2ccc(Nc3ncc4c(n3)N(c3cccc(N=S(C)(C)=O)n3)[C@@H]3CC(C)(C)OC[C@]43C)cc2)C1 (single isomer, unassigned)
pIC50: > 7.00

Molecule: Cc1cc(Nc2ncc3c(n2)N(c2cccc(N4C(=O)OC[C@@H]4C)n2)[C@@H]2CC(C)(C)OC[C@]32C)ccc1N1CCN(C)CC1 (single isomer, unassigned)
pIC50: > 7.00
